Ref: the supplement of paper PMC7125110

B1: glmS ribozyme (parent)
chain: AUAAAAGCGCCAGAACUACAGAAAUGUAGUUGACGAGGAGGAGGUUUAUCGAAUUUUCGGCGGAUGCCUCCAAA

# Variants of: B1
# assay.explanation: kcat; higher = faster cleavage; RNA array
# measurement.setup: with glucosamine-6-phosphate
This sample holds only a part of the variants without activity.
Would you kindly list kcat for each of these variants?
Report the value in s⁻¹ with no unit label.

[ask] For the variant G13U A14C , what kcat is on record?
[reply] 0.00021

[ask] Look up kcat: U30C G32U
[reply] 0.000492

[ask] Look up kcat: A15C U57G
[reply] 2.37e-05

[ask] If you can, please state the reported kcat value of U54G C58A .
[reply] 0.000823

[ask] Please report the recorded kcat for G37C A42G .
[reply] 7.11e-05

[ask] Please look up its kcat: A36G U45A
[reply] 3.07e-05

[ask] Tell me the measured kcat of C50U U55G , please.
[reply] 4.41e-05

[ask] Given the entry U31C C67A , report its measured kcat.
[reply] 0.00103

[ask] Any idea what kcat was measured for C58A C71A ?
[reply] 5.74e-05

[ask] Please look up its kcat: G29A G32C
[reply] 0.000144

[ask] Record request: kcat value, item A39C G66A
[reply] 0.004

[ask] So what's the measured kcat for this one? U47C U56C A64G
[reply] 6.84e-05

[ask] Reported kcat for A6G A53C U54A : what is it?
[reply] 5.34e-05

[ask] Given the variant G29U C58U C68U , what is its reported kcat?
[reply] 3.99e-05

[ask] Please look up its kcat: C11U U31A
[reply] 0.00134

[ask] Please give the measured kcat for this variant: A14G G37U
[reply] 2.35e-05

[ask] // kcat lookup, key: U65G U69A
[reply] 0.000187

[ask] Report kcat for A14G G32A please.
[reply] 0.0158

[ask] Any idea what kcat was measured for A14C A39C ?
[reply] 0.000549

[ask] Looking for the measured kcat of "C16G" , can you help?
[reply] 0.0106

[ask] Consider the variant shown here: G29C U54G What is its recorded kcat?
[reply] 0.000894

[ask] // kcat lookup, key: U56G C70G
[reply] 9.25e-05

[ask] Reported kcat for A33C U56A : what is it?
[reply] 0.000161

[ask] If you can, please state the reported kcat value of A12G C71U .
[reply] 0.00146

[ask] Which kcat is reported for this variant? A12U G32A
[reply] 0.000902

[ask] Entry A6U A53G has what kcat?
[reply] 0.000783

[ask] Suppose we examine the variant U55C C58A ; what kcat value has been reported?
[reply] 0.000437

[ask] Reported kcat for U46G A52U : what is it?
[reply] 0.000165

[ask] Entry under review: G29C U31C . Reported kcat?
[reply] 0.000387

[ask] Any idea what kcat was measured for G29A U47A ?
[reply] 0.00354

[ask] Consider the variant U57C C71A and give its measured kcat.
[reply] 2.47e-05

[ask] Report kcat for U31C G32A please.
[reply] 0.0022

[ask] I have this variant here, A42G C50U , and I need its recorded kcat.
[reply] 0.000135

[ask] Can you look up the measured kcat of A14C G40U for me?
[reply] 0.000718

[ask] # kcat lookup, item A12C C58U
[reply] 0.000159

[ask] Please report the recorded kcat for A15U A36G U69C C70A .
[reply] 1.84e-05

[ask] Which kcat is listed for U30A A33U ?
[reply] 5.67e-05

[ask] Need kcat, item G29U G59A
[reply] 1.03e-05

[ask] Which kcat reading was recorded for the variant G13A A14G ?
[reply] 0.00208

[ask] Looking for the measured kcat of U47A C67G , can you help?
[reply] 0.000644

[ask] Returns the measured kcat for the input variant. Input: U45A U69G
[reply] 6.38e-05
